- testedOn: PCSK9 (Homo sapiens, UniProt Q8NBP7)
- Sequence (Q8NBP7 153-692): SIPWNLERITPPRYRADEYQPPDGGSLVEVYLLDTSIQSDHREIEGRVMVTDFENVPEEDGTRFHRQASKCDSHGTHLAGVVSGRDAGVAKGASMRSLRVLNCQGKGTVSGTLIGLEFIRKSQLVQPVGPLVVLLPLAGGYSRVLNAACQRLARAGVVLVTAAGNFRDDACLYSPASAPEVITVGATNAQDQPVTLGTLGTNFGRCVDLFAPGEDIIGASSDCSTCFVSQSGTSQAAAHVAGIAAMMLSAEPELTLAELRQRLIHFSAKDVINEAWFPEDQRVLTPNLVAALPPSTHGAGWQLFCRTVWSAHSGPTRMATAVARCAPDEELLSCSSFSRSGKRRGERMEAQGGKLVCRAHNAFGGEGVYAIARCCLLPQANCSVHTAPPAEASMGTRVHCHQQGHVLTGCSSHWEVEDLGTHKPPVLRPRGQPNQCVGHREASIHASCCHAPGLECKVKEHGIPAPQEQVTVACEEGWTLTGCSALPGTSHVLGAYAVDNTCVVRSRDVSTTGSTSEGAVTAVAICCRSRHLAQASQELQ
- Sequence (Q8NBP7 31-152 partner limits assumed): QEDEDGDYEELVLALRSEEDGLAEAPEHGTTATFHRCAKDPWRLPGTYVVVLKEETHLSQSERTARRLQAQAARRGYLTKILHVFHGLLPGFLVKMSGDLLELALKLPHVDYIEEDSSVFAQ
- testDescription: PCSK9/EGF(A) TR-FRET binding assay
- experimentalContext: TR-FRET; Table 8E, additional compounds; read-out: PCSK9/EGF(A) IC50
pIC50: −log10 of the molar value. Square brackets hold non-standard residues; d marks the D form. Peptide text beside a SMILES is read from it. * marks the point of attachment. Butyryl(4-indol-3-yl) = O=C(CCCc1c[nH]c2ccccc12)*; Propanoyl(3-(3-pyridyl)) = O=C(CCc1cccnc1)*; Butanoyl(4-Ph) = O=C(CCCc1ccccc1)*; X45 = CC(=O)c1ccc(OCCCC(=O)*)cc1; hArg = N=C(N)NCCCC[C@H](N)C(=O)O; X25 = COc1cc(CCC(=O)*)ccc1O; X32 = O=C(CCN1CCOCC1)*; Butyryl = CCCC(=O)*
Values of pIC50 greater than or equal to 5 map to Satisfied; values below map to Not satisfied.

Some entries whose results are on file:
molecule	classification
CC[C@H](C)[C@H](NC(=O)[C@H](CCCCNC(=N)N)NC(=O)[C@@H](NC(=O)[C@H](CC(C)C)NC(=O)[C@H](CC(N)=O)NC(=O)[C@H](Cc1c[nH]c2ccccc12)NC(=O)CCCc1c[nH]c2ccccc12)C(C)C)C(=O)NCC(=O)N[C@@H](CC(C)C)C(=O)N[C@@H](CC(C)C)C(=O)N[C@@H](CCCNC(=N)N)C(N)=O [Compound 200] ({Butyryl(4-indol-3-yl)}-WNLV[hArg]IGLLR-NH2)	Satisfied
CC[C@H](C)[C@H](NC(=O)[C@H](CCCNC(=N)N)NC(=O)[C@@H](NC(=O)[C@H](CC(C)C)NC(=O)[C@H](CC(N)=O)NC(=O)[C@H](Cc1c[nH]c2ccccc12)NC(=O)CCCOc1ccc(C(C)=O)cc1)C(C)C)C(=O)NCC(=O)N[C@@H](CC(C)C)C(=O)N[C@H](C(=O)N[C@@H](CCCNC(=N)N)C(N)=O)[C@@H](C)O [Compound 183] (X45-WNLVRIGLTR-NH2)	Not satisfied

Reported pIC50 reaches at least 5 for CCCC(=O)N[C@@H](Cc1c[nH]c2ccccc12)C(=O)N[C@@H](CC(N)=O)C(=O)N[C@@H](CC(C)C)C(=O)N[C@H](C(=O)N[C@@H](CCCNC(=N)N)C(=O)N[C@H](C(=O)NCC(=O)N[C@@H](CC(C)C)C(=O)N[C@@H](CC(C)C)C(=O)N[C@@H](CCCNC(=N)N)C(N)=O)[C@@H](C)CC)C(C)C [Compound 123] (Butyryl-WNLVRIGLLR-NH2) ?
Not satisfied

Given the entry CC[C@H](C)[C@H](NC(=O)[C@H](CCCNC(=N)N)NC(=O)[C@@H](NC(=O)[C@H](CC(C)C)NC(=O)[C@H](CC(N)=O)NC(=O)[C@H](Cc1c[nH]c2ccccc12)NC(=O)CCc1cccnc1)C(C)C)C(=O)NCC(=O)N[C@@H](CC(C)C)C(=O)N[C@H](C(=O)N[C@@H](CCCNC(=N)N)C(N)=O)[C@@H](C)O [Compound 173] ({Propanoyl(3-(3-pyridyl))}-WNLVRIGLTR-NH2) , answer whether its pIC50 meets or surpasses 5.
Not satisfied

Could you tell me if the measured pIC50 of CC[C@H](C)[C@H](NC(=O)[C@H](CCCCNC(=N)N)NC(=O)[C@@H](NC(=O)[C@H](CC(C)C)NC(=O)[C@H](CC(N)=O)NC(=O)[C@H](Cc1c[nH]c2ccccc12)NC(=O)CCCc1ccccc1)C(C)C)C(=O)NCC(=O)N[C@@H](CC(C)C)C(=O)N[C@@H](CC(C)C)C(=O)N[C@@H](CCCNC(=N)N)C(N)=O [Compound 212] ({Butanoyl(4-Ph)}-WNLV[hArg]IGLLR-NH2) reaches 5 or more?
Not satisfied

Test whether the molecule CC[C@H](C)[C@H](NC(=O)[C@H](CCCCNC(=N)N)NC(=O)[C@@H](NC(=O)[C@H](CC(C)C)NC(=O)[C@H](CC(N)=O)NC(=O)[C@@H](N)Cc1c[nH]c2ccccc12)C(C)C)C(=O)NCC(N)=O [Compound 236, WNLV(homoR)IG-NH2] (H-WNLV[hArg]IG-NH2) records pIC50 of 5 or higher.
Not satisfied

Given CC[C@H](C)[C@H](NC(=O)[C@H](CCCNC(=N)N)NC(=O)[C@@H](NC(=O)[C@H](CC(C)C)NC(=O)[C@H](CC(N)=O)NC(=O)[C@H](Cc1c[nH]c2ccccc12)NC(=O)CCN1CCOCC1)C(C)C)C(=O)NCC(=O)N[C@@H](CC(C)C)C(=O)N[C@@H](CC(C)C)C(=O)N[C@@H](CCCNC(=N)N)C(N)=O [Compound 137] (X32-WNLVRIGLLR-NH2) , state whether its pIC50 is at least 5.
Not satisfied

Identify whether the reported pIC50 of the following molecule is 5 or greater: CC[C@H](C)[C@H](NC(=O)[C@H](CCCCNC(=N)N)NC(=O)[C@H](CCCCN)NC(=O)[C@H](CC(C)C)NC(=O)[C@H](CC(N)=O)NC(=O)[C@H](Cc1c[nH]c2ccccc12)NC(=O)CNC(=O)[C@@H]1CCCN1C(=O)[C@H](Cc1ccccc1)NC(=O)[C@H](C)NC(=O)[C@H](Cc1ccccc1)NC(=O)[C@H](CO)NC(C)=O)C(=O)NCC(=O)N[C@@H](CC(C)C)C(=O)N[C@@H](CC(C)C)C(=O)N[C@@H](CCCNC(=N)N)C(N)=O [Compound 232] (Ac-SFAFPGWNLK[hArg]IGLLR-NH2)
Satisfied

API: above_or_equal(metric=pIC50, cutoff=5) for item CC[C@H](C)[C@H](NC(=O)[C@H](CCCCNC(=N)N)NC(=O)[C@@H](NC(=O)[C@H](CC(C)C)NC(=O)[C@H](CC(N)=O)NC(=O)[C@H](Cc1c[nH]c2ccccc12)NC(=O)CCc1ccc(O)c(OC)c1)C(C)C)C(=O)NCC(=O)N[C@@H](CC(N)=O)C(=O)N[C@@H](CCCNC(=N)N)C(N)=O [Compound 240] (X25-WNLV[hArg]IGNR-NH2)
Not satisfied

# check: pIC50 of CC[C@H](C)[C@H](NC(=O)[C@H](CCCCNC(=N)N)NC(=O)[C@@H](NC(=O)[C@H](CC(C)C)NC(=O)[C@H](CC(N)=O)NC(=O)[C@H](Cc1c[nH]c2ccccc12)NC(=O)CNC(=O)[C@@H]1CCCN1C(=O)[C@H](Cc1ccccc1)NC(=O)[C@H](C)NC(=O)[C@H](Cc1ccccc1)NC(=O)[C@H](CO)NC(C)=O)C(C)C)C(=O)NCC(=O)N[C@@H](CC(C)C)C(=O)N[C@@H](CC(C)C)C(=O)N[C@@H](CCCNC(=N)N)C(N)=O [Compound 228] (Ac-SFAFPGWNLV[hArg]IGLLR-NH2) is greater than or equal to 5
Satisfied
